Value source: patent US20260176289A1

Target: KRAS-WT (Homo sapiens)
Sequence (P01116 with tags, fused parts or gaps isoform P01116-2): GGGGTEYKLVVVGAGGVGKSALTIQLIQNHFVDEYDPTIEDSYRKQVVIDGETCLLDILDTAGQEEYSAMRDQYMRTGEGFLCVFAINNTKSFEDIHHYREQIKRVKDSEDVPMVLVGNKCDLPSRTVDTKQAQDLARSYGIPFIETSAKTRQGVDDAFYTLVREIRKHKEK
Test: SOS-catalyzed nucleotide exchange assay (Procedure A, TR-FRET), KRAS-WT
Assay type: biochemical
Details: nucleotide exchange, read-out: KRAS WT GNE IC50
Item-by-item account of IC50
# unit: nM | format: bare number

Worked examples, 2 compounds total:
{"columns": ["Compound", "Measured attribute", "Observed measurement"],
 "data": [
  ["Cc1cc2[nH]ncc2c(-c2nc(C#N)cc3c2sc2nc(OC[C@@]45CCCN4C[C@H](F)C5)nc(N4CCOC[C@@](C)(O)C4)c23)c1C(F)(F)F [Ex-31]", "IC50", 571],
  ["CC1(F)CCN(C[C@@]2(COc3nc(N4CCOC[C@@](C)(O)C4)c4c(n3)sc3c(-c5c(C6(F)CC6)c(Cl)cc6[nH]ncc56)nccc34)CC2(F)F)CC1 [Ex-232]", "IC50", 762]
]}

Next, consider the following compound.
# lookup: KRAS-WT (Homo sapiens) IC50, key = CC1CCc2cccc(-c3nccc4c3sc3nc(OC[C@@]56CCCN5C[C@H](F)C6)nc(N5CCOC[C@@](C)(O)C5)c34)c21 (single isomer, unassigned) [Ex-117]
218

###

Item-by-item account of pIC50
Molecular target: KRAS-G12V (Homo sapiens, UniProt P01116, G12V)
Sequence (P01116 with tags, fused parts or gaps isoform P01116-2 G12V): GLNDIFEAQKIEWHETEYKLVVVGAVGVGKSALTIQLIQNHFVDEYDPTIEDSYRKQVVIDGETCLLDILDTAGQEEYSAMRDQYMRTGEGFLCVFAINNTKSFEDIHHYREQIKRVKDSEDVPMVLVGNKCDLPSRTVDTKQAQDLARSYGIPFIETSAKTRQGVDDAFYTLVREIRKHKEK
Assay: SOS-catalyzed nucleotide exchange assay (Procedure A, TR-FRET), KRAS-G12V
Assay type: biochemical
Settings: nucleotide exchange, read-out: KRAS G12V GNE IC50
Entry type: numeric. Quantity: pIC50, the -log10 of concentration in molar units.

{"columns": ["Compound", "pIC50"],
 "data": [
  ["Cc1cc2[nH]ncc2c(-c2nccc3c4c(N5CCOC[C@@](C)(O)C5)nc(OC[C@]5(CN(C)C)CC5(F)F)nc4n(C)c23)c1C(F)F (single isomer, unassigned)", 7.17],
  ["C[C@@]1(O)COCCN(c2nc(OC[C@@]34CCCN3C[C@H](F)C4)nc3sc4c(-c5c(C(F)(F)F)c(Cl)cc6[nH]ncc56)nccc4c23)C1", 7.08],
  ["[2H]C([2H])([2H])N(C[C@@]1(COc2nc(N3CCOC[C@@](C)(O)C3)c3c(n2)sc2c(-c4c(C5(F)CC5)c(Cl)cc5[nH]ncc45)nccc23)CC1(F)F)C([2H])([2H])[2H]", 8.06],
  ["C[C@@]1(O)COCCN(c2nc(OC[C@@]34CCCN3C[C@H](F)C4)nc3sc4c(-c5c(C6CCC6)c(Cl)cc6[nH]ncc56)nccc4c23)C1", 7.99],
  ["CN(C)C1CC(F)(F)C2C[C@]12COc1nc(N2CCOC[C@@](C)(O)C2)c2c(n1)sc1c(-c3c(C4(F)CC4)c(Cl)cc4[nH]ncc34)nccc12 (stereo partly shown) [Ex-271]", 7.43]
]}

Kindly indicate its recorded pIC50. Item: C[C@@]1(O)COCCN(c2nc(OC[C@@]34CCCN3C[C@H](F)C4)nc3sc4c(-c5c(C6=CCC6)c(Cl)cc6[nH]ncc56)nccc4c23)C1
7.71

Kindly indicate its recorded pIC50. Item: C=C(C)c1c(C)cc2[nH]ncc2c1-c1nncc2c1sc1nc(OC[C@@]34CCCN3C[C@H](F)C4)nc(N3CCOC[C@@](C)(O)C3)c12
7.52

###

Target: KRAS-G13D (Homo sapiens, UniProt P01116, G13D)
Sequence (P01116 with tags, fused parts or gaps isoform P01116-2 G13D): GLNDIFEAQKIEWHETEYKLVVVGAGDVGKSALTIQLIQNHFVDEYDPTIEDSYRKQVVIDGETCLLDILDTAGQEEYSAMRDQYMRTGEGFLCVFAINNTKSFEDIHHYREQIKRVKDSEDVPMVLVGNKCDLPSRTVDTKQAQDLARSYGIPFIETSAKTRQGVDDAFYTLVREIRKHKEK
Experiment: SOS-catalyzed nucleotide exchange assay (Procedure A, TR-FRET), KRAS-G13D
Format: biochemical
Conditions: nucleotide exchange, Procedure A; read-out: KRAS G13D GNE IC50
Measured attribute: IC50 (nM)
# unit: nM | format: bare number

Worked examples, 5 compounds total:
{"columns": ["Compound", "Units label", "IC50"],
 "data": [
  ["C#Cc1cccc2[nH]nc(-c3nccc4c3sc3nc(OC[C@@]56CCCN5C[C@H](F)C6)nc(N5CCOC[C@@](C)(O)C5)c34)c12", "nM", 328],
  ["C#Cc1cccc2cc3[nH]ncc3c(-c3nccc4c3sc3nc(OC[C@@]56CCCN5C[C@H](F)C6)nc(N5CCOC[C@@](C)(O)C5)c34)c12", "nM", 5.03],
  ["C[C@@]1(O)COCCN(c2nc(OC[C@]3(CN4C[C@H]5CCCO[C@H]5C4)CC3(F)F)nc3sc4c(-c5c(C6(F)CC6)c(Cl)cc6[nH]ncc56)nccc4c23)C1", "nM", 12.8],
  ["Cn1c2nc(OC[C@@]34CCCN3C[C@H](F)C4)nc(N3CCOC[C@@](C)(O)C3)c2c2ccnc(-c3ccc(F)c4sc(N)c(C#N)c34)c21", "nM", 315],
  ["CCn1c2nc(OC[C@@]34CCCN3C[C@H](F)C4)nc(N3CCOC[C@@](C)(O)C3)c2c2ccnc(-c3c(C(F)(F)F)c(C)cc4[nH]ncc34)c21", "nM", 1020]
]}

Kindly indicate its recorded IC50. Item: C=C(C)c1c(C)cc2[nH]ncc2c1-c1nccc2c1oc1nc(OC[C@]3(CN(C)C)CC3(F)F)nc(N3CCOC[C@@](C)(O)C3)c12
296

Kindly indicate its recorded IC50. Item: C#Cc1c(C)cc2[nH]ncc2c1-c1nccc2c3c(N4CCOC[C@@](C)(O)C4)nc(OC[C@@]45CCCN4C[C@H](F)C5)nc3n(C)c12 (single isomer, unassigned)
22.9

Kindly indicate its recorded IC50. Item: Cc1cc2[nH]ncc2c(-c2nccc3c2sc2nc(OC[C@@]45CCCN4C[C@H](F)C5)nc(N4CCCC5(CNC(=O)C5)C4)c23)c1C(F)(F)F (stereo partly drawn)
970

Kindly indicate its recorded IC50. Item: Cc1cc2[nH]nc(C#N)c2c(-c2nccc3c2sc2nc(OC[C@@]45CCCN4C[C@H](F)C5)nc(N4CCOC[C@@](C)(O)C4)c23)c1C(F)(F)F
1430

Kindly indicate its recorded IC50. Item: C[C@@]1(O)COCCN(c2nc(OC[C@@]34CCCN3C[C@H](F)C4)nc3sc4c(-c5c(C(F)(F)F)c(Cl)cc6[nH]ncc56)nccc4c23)C1
52.4

Kindly indicate its recorded IC50. Item: Cc1cc2[nH]ncc2c(-c2nccc3c2sc2nc(OC[C@@]45CCCN4C[C@H](F)C5)nc(NC45CC(O)(C4)C5)c23)c1C(F)(F)F
223

Kindly indicate its recorded IC50. Item: CN(C)C[C@@]1(COc2nc(N3CCOC[C@@](C)(O)C3)c3c(n2)sc2c(-c4c(C5CC5)c(Cl)cc5[nH]ncc45)nccc23)CC1(F)F
7.21

###

Test system: MKN-1 cells
Test: Cellular phospho-ERK assay, MKN-1 cells (amplified wild-type KRAS)
Assay type: cell-based
Details: Homo sapiens, 2 hours compound incubation, read-out: MKN1 pERK IC50
Item-by-item account of IC50
# unit: nM | format: bare number

Worked examples, 2 molecules total:
{"columns": ["Molecule", "Units label", "IC50"],
 "data": [
  ["C=C(C)c1c(Cl)cc2[nH]ncc2c1-c1nccc2c1sc1nc(OC[C@@]34CCCN3C[C@H](F)C4)nc(N3CCOC[C@@](C)(O)C3)c12", "nM", 120],
  ["C[C@@]1(O)COCCN(c2nc(OC[C@@]34CCN3C[C@H](F)C4)nc3sc4c(-c5c(C6CC6)c(Cl)cc6[nH]ncc56)nccc4c23)C1 (single isomer, unassigned)", "nM", 80.7]
]}

Kindly indicate its recorded IC50. Item: CN1CCC[C@@]2(COc3nc(N4CCOC[C@@](C)(O)C4)c4c(n3)sc3c(-c5c(C6CC6)c(Cl)cc6[nH]ncc56)nccc34)CCC[C@@H]12
46.9

###

Target: KRAS-G12V (Homo sapiens, UniProt P01116, G12V)
Test: SOS-catalyzed nucleotide exchange assay (Procedure A, TR-FRET), KRAS-G12V
Format: biochemical
Conditions: nucleotide exchange, read-out: KRAS G12V GNE IC50
Each record is given Fulfilled if its reported IC50 is strictly below 0.03 µM. Records at or above 0.03 µM are given Not fulfilled.

Does this molecule meet the criterion IC50 < 0.03 µM? CN1CCC[C@@]2(COc3nc(N4CCOC[C@@](C)(O)C4)c4c(n3)sc3c(-c5c(C6(F)CC6)c(Cl)cc6[nH]ncc56)nccc34)CCC[C@@H]12
Fulfilled

###

Molecular target: KRAS-G12D (Homo sapiens, UniProt P01116, G12D)
Sequence (P01116 with tags, fused parts or gaps isoform P01116-2 G12D): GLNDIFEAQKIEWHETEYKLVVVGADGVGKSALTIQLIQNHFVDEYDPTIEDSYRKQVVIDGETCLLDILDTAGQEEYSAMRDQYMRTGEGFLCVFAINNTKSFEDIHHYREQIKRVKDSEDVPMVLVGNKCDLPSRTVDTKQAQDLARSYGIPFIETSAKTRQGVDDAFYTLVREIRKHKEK
Test: SOS-catalyzed nucleotide exchange assay (Procedure A, TR-FRET), KRAS-G12D
Type: biochemical
Settings: nucleotide exchange, read-out: KRAS G12D GNE IC50
Measured attribute: log10(IC50) (log10 of the value in nM)
Short version: log10 scale, IC50, nM.

{"columns": ["Molecule", "log10(IC50)"],
 "data": [
  ["CC(C)c1c(Cl)cc2[nH]ncc2c1-c1nccc2c1sc1nc(OC[C@@]34CCCN3C[C@H](F)C4)nc(N3CCOC[C@@](C)(O)C3)c12", 1.54]
]}

Kindly indicate its recorded log10(IC50). Item: CCC1=CC(F)(F)c2cc3[nH]ncc3c(-c3nccc4c3sc3nc(OC[C@@]56CCCN5C[C@H](F)C6)nc(N5CCOC[C@@](C)(O)C5)c34)c21
2.22

Kindly indicate its recorded log10(IC50). Item: CC1(O)COCCN(c2nc(OCC3(CN4CC5C(F)C5C4)CC3(F)F)nc3sc4c(-c5c(C6CC6)c(Cl)cc6[nH]ncc56)nccc4c23)C1 (stereo not drawn)
1.80

Kindly indicate its recorded log10(IC50). Item: COCc1cc2[nH]ncc2c(-c2nccc3c2sc2nc(OC[C@@]45CCCN4C[C@H](F)C5)nc(N4CCOC[C@@](C)(O)C4)c23)c1C1CC1
2.39

Kindly indicate its recorded log10(IC50). Item: CN1CCC[C@@]2(COc3nc(N4CCOC[C@@](C)(O)C4)c4c(n3)sc3c(-c5c(C6(F)CC6)c(Cl)cc6[nH]ncc56)nccc34)CCC[C@@H]12
0.39

Kindly indicate its recorded log10(IC50). Item: CNc1cc2c(sc3nc(OC[C@@]45CCCN4C[C@H](F)C5)nc(N4CCOC[C@@](C)(O)C4)c32)c(-c2c(C(F)(F)F)c(C)cc3[nH]ncc23)n1
2.20
